# experimentNotes: Pharmacokinetics and Tissue Distribution in the MV4-11 xenograft model
# Assay type: in vivo, mice
# testSettings: female, CB-17 SCID, mouse; heart; 5 mg/kg single intravenous dose
assayEndpoint: Tmax (h)
Report the value in h with no unit label.

# lookup: Tmax of Cc1sc2c(c1C)C(c1ccc(Cl)cc1)=N[C@@H](CC(=O)N1CCC(CN3CCN(Cc4ccc(-n5c(O)nnc5-c5cc(C(C)C)c(O)cc5O)cc4)CC3)CC1)c1nnc(C)n1-2.Cl [Compound 74]
1

* * *

# systemTested: BRD4 (BD1+BD2) (Homo sapiens, UniProt O60885)
# Construct: 1.8 μg/ml recombinant BRD4 (BD1+BD2 domains) protein
# testSettings: read-out: BRD4 Binding Potency
Counter-ions that a name gives are not always drawn.
assayEndpoint: IC50

# lookup: IC50 of Cc1sc2c(c1C)C(c1ccc(Cl)cc1)=N[C@@H](CC(=O)N1CCN(Cc3ccc(-n4c(O)nnc4-c4cc(C(C)C)c(O)cc4O)cc3)CC1)c1nnc(C)n1-2 [Compound 38, trifluoroacetic acid]
> 1 µM

# lookup: IC50 of CCNC(=O)c1nnc(-c2cc(C(C)C)c(O)cc2O)n1-c1ccc(CC2CCN(CC3CCN(C(=O)C[C@@H]4N=C(c5ccc(Cl)cc5)c5c(sc(C)c5C)-n5c(C)nnc54)CC3)CC2)cc1 [Compound 90]
0.1 to 1 µM

# lookup: IC50 of CCNC(=O)c1noc(-c2cc(C(C)C)c(O)cc2O)c1-c1ccc(CN2CCN(CC3CCN(C(=O)C[C@@H]4N=C(c5ccc(Cl)cc5)c5c(sc(C)c5C)-n5c(C)nnc54)CC3)CC2)cc1 [Compound 16, trifluoroacetic acid]
0.1 to 1 µM

# lookup: IC50 of CCN(Cc1ccc(OCCCNC(=O)C[C@@H]2N=C(c3ccc(Cl)cc3)c3c(sc(C)c3C)-n3c(C)nnc32)cc1)Cc1ccc(-n2c(C(=O)NCC(F)(F)F)nnc2-c2cc(C(C)C)c(O)cc2O)cc1 [Compound 102, trifluoroacetic acid]
> 1 µM

# lookup: IC50 of Cc1sc2c(c1C)C(c1ccc(Cl)cc1)=N[C@@H](CC(=O)NCc1ccc(CN3CCC(Cc4ccc(-n5c(C(=O)NCC(F)(F)F)nnc5-c5cc(C(C)C)c(O)cc5O)cc4)CC3)cc1)c1nnc(C)n1-2 [Compound 96, trifluoroacetic acid]
< 0.1 µM

# lookup: IC50 of CCN(CC)CCNC(=O)c1nnc(-c2ccc(O)cc2O)n1-c1ccc(CN2CCN(CC3CCN(C(=O)C[C@@H]4N=C(c5ccc(Cl)cc5)c5c(sc(C)c5C)-n5c(C)nnc54)CC3)CC2)cc1 [Compound 111, trifluoroacetic acid]
< 0.1 µM

# lookup: IC50 of Cc1nn(-c2ccc(C(N)=O)c(NCCOCCN3CCN(C(=O)C[C@@H]4N=C(c5ccc(Cl)cc5)c5c(sc(C)c5C)-n5c(C)nnc54)CC3)c2)c2c1C(=O)CC(C)(C)C2 [Compound 24]
> 1 µM

# lookup: IC50 of Cc1sc2c(c1C)C(c1ccc(Cl)cc1)=N[C@@H](CCNCC1CCN(C(=O)C3CCN(Cc4ccc(-n5c(O)nnc5-c5cc(C(C)C)c(O)cc5O)cc4)CC3)CC1)c1nnc(C)n1-2 [Compound 64, trifluoroacetic acid]
0.1 to 1 µM

# lookup: IC50 of CCc1cc(-c2nnc(O)n2-c2ccc(CN3CCN(CC4CCN(C(=O)C[C@H]5N=C(c6ccc(Cl)cc6)c6c(sc(C)c6C)-n6c(C)nnc65)CC4)CC3)cc2)c(O)cc1O [Compound 27, trifluoroacetic acid]
> 1 µM

# lookup: IC50 of Cc1sc2c(c1C)C(c1ccc(Cl)cc1)=N[C@@H](CC(=O)NCC1CCN(C(=O)C3CCN(Cc4ccc(-n5c(O)nnc5-c5cc(C(C)C)c(O)cc5O)cc4)CC3)C1)c1nnc(C)n1-2 (stereo partly drawn) [Compound 45, trifluoroacetic acid]
< 0.1 µM

# lookup: IC50 of COc1cccc(-c2cc(C(=O)Nc3ccc(-c4ccc(OC5CCN(C(=O)CNC(=O)C[C@@H]6N=C(c7ccc(Cl)cc7)c7c(sc(C)c7C)-n7c(C)nnc76)CC5)cc4O)cc3)ccc2OC)c1 [Compound 134]
> 1 µM

# lookup: IC50 of Cc1sc2c(c1C)C(c1ccc(Cl)cc1)=N[C@@H](CC(=O)N1CCN(Cc3ccc4c(c3)CN(C(=O)c3ccc(O)cc3O)C4)CC1)c1nnc(C)n1-2 [Compound 143]
> 1 µM

# lookup: IC50 of CCc1cc(-c2nnc(C(N)=O)n2-c2ccc(CN3CCN(CC4CCN(C(=O)C[C@@H]5N=C(c6ccc(Cl)cc6)c6c(sc(C)c6C)-n6c(C)nnc65)CC4)CC3)cc2)c(O)cc1O [Compound 120, hydrochloride]
< 0.1 µM

# lookup: IC50 of CCCc1cc(-c2nnc(C(=O)NCCN3CCCCC3)n2-c2ccc(CN3CCN(CC4CCN(C(=O)C[C@@H]5N=C(c6ccc(Cl)cc6)c6c(sc(C)c6C)-n6c(C)nnc65)CC4)CC3)cc2)c(O)cc1O [Compound 123, trifluoroacetic acid]
< 0.1 µM

# lookup: IC50 of Cc1cc(C(=O)N2Cc3ccc(CN4CCN(C(=O)C[C@@H]5N=C(c6ccc(Cl)cc6)c6c(sc(C)c6C)-n6c(C)nnc65)CC4)cc3C2)c(O)cc1O [Compound 144]
0.1 to 1 µM

# lookup: IC50 of CCc1cc(-c2nnc(O)n2-c2ccc(CN3CCN(CC4CCN(CC[C@@H]5N=C(c6ccc(Cl)cc6)c6c(sc(C)c6C)-n6c(C)nnc65)CC4)CC3)cc2)c(O)cc1O [Compound 2, trifluoroacetic acid]
> 1 µM

# lookup: IC50 of Cc1sc2c(c1C)C(c1ccc(Cl)cc1)=N[C@@H](CC(=O)N1CCC(Cc3ccc(-n4c(O)nnc4-c4cc(C(C)C)c(O)cc4O)cc3)CC1)c1nnc(C)n1-2 [Compound 3, trifluoroacetic acid]
> 1 µM

# lookup: IC50 of COc1cccc(-c2cc(C(=O)Nc3ccc(-c4ccc(OC5CCN(CC[C@@H]6N=C(c7ccc(Cl)cc7)c7c(sc(C)c7C)-n7c(C)nnc76)CC5)cc4OCCN(C)C)cc3)ccc2OC)c1 [Compound 139]
0.1 to 1 µM

Every entry's value here was drawn from patent US20220168427A1.
